# selectivity ratio annotations
assayExplanation: Selectivity index, ratio of CC50 for HEK293T cells to EC50 for bloodstream trypomastigote stage of wild-type Trypanosoma brucei brucei Lister 427
Assay type: toxicity
conditionSummary: human, read-out: Ratio CC50/EC50

{"structureString": "O=C(OCCCCCCCCCCCC[P+](c1ccccc1)(c1ccccc1)c1ccccc1)c1ccc(O)cc1O.[Br-]", "selectivity ratio": 1330}
{"structureString": "O=C(OCCCCCCCCCC[P+](c1ccccc1)(c1ccccc1)c1ccccc1)c1ccc(O)cc1O.[Br-]", "selectivity ratio": 1770}
{"structureString": "O=C(NO)c1ccc(OCCCCCCCCCC[P+](c2ccccc2)(c2ccccc2)c2ccccc2)cc1O.[Br-]", "selectivity ratio": "> 2040"}
{"structureString": "O=C(OCCCCCCCCCCCCCCCCBr)c1ccc(O)cc1O", "selectivity ratio": "> 9"}
{"structureString": "BrCCCCCCCCCC[P+](c1ccccc1)(c1ccccc1)c1ccccc1.[Br-]", "selectivity ratio": 3340}
{"structureString": "O=C(NO)c1ccc(OCCCCCCCC[P+](c2ccccc2)(c2ccccc2)c2ccccc2)cc1O.[Br-]", "selectivity ratio": "> 1000"}
{"structureString": "O=C(NO)c1ccc(OCCCCCCCCCCCC[P+](c2ccccc2)(c2ccccc2)c2ccccc2)cc1O.[Br-]", "selectivity ratio": "> 2860"}
{"structureString": "O=C(OCCCCCCCCC[P+](c1ccccc1)(c1ccccc1)c1ccccc1)c1ccc(O)cc1O.[Br-]", "selectivity ratio": 789}
{"structureString": "O=COCCCCCCCCCCOC(=O)c1ccc(O)cc1O", "selectivity ratio": "> 12"}
{"structureString": "O=C(OCCCCCCCC[P+](c1ccccc1)(c1ccccc1)c1ccccc1)c1ccc(O)cc1O.[Br-]", "selectivity ratio": 106}
{"structureString": "O=C(OCCCCCCCCCCCCBr)c1ccc(O)cc1O", "selectivity ratio": "> 28"}

###

Measured CC50 at 30 h, listed per entry for reference.
assayExplanation: Cytotoxicity against HFF cells after 30 hrs by resazurin based fluorimetric assay
Format: cell-based
conditionSummary: human

{"structureString": "O=C(OCCCCCCCCCCCCCC[P+](c1ccccc1)(c1ccccc1)c1ccccc1)c1ccc(O)cc1O.[Br-]", "CC50 at 30 h / µM": 59.7}
{"structureString": "O=C(OCCCCCCCCCCCC[n+]1cccc2ccccc21)c1ccc(O)cc1O.[Br-]", "CC50 at 30 h / µM": 202}
{"structureString": "O=C(OCCCCCCCCCCCCCC[n+]1cccc2ccccc21)c1ccc(O)cc1O.[Br-]", "CC50 at 30 h / µM": 172}
{"structureString": "O=C(OCCCCCCCCCCCCCCCC[n+]1cccc2ccccc21)c1ccc(O)cc1O.[Br-]", "CC50 at 30 h / µM": 345}
{"structureString": "O=C(OCCCCCCCCCCCCCCCC[P+](c1ccccc1)(c1ccccc1)c1ccccc1)c1ccc(O)cc1O.[Br-]", "CC50 at 30 h / µM": 249}

###

assayExplanation: Cytotoxicity against HEK cells up to 50 uM after 30 hrs by resazurin based fluorimetric assay
Format: cell-based
conditionSummary: human

{"structureString": "O=C(OCCCCCCCCCCCCBr)c1ccc(O)cc1O", "Activity": "Non-Toxic"}
{"structureString": "BrCCCCCCCCCC[P+](c1ccccc1)(c1ccccc1)c1ccccc1.[Br-]", "Activity": "Non-Toxic"}
{"structureString": "O=COCCCCCCCCCCOC(=O)c1ccc(O)cc1O", "Activity": "Non-Toxic"}
{"structureString": "O=C(NO)c1ccc(OCCCCCCCCCCCC[P+](c2ccccc2)(c2ccccc2)c2ccccc2)cc1O.[Br-]", "Activity": "Non-Toxic"}
{"structureString": "O=C(OCCCCCCCC[P+](c1ccccc1)(c1ccccc1)c1ccccc1)c1ccc(O)cc1O.[Br-]", "Activity": "Non-Toxic"}

###

Tested on: Trypanosoma congolense
assayExplanation: Anti-parasitic activity against bloodstream form of Trypanosoma congolense IL3000 after 48 hrs by alamar blue based fluorescence assay
Assay type: functional
conditionSummary: IL3000, 48 h
pEC50: −log10 of the molar value.
The following compounds are listed with their measured pEC50 values.

{"structureString": "O=C(OCCCCCCCCCCCC[P+](c1ccccc1)(c1ccccc1)c1ccccc1)c1ccc(O)cc1O.[Br-]", "inequalitySymbol": "=", "pEC50": 7.38}
{"structureString": "O=C(OCCCCCCCCCCCCCCCC[P+](c1ccccc1)(c1ccccc1)c1ccccc1)c1ccc(O)cc1O.[Br-]", "inequalitySymbol": "=", "pEC50": 6.91}
{"structureString": "BrCCCCCCCCCC[P+](c1ccccc1)(c1ccccc1)c1ccccc1.[Br-]", "inequalitySymbol": "=", "pEC50": 6.02}
{"structureString": "O=C(OCCCCCCCC[P+](c1ccccc1)(c1ccccc1)c1ccccc1)c1ccc(O)cc1O.[Br-]", "inequalitySymbol": "=", "pEC50": 5.37}
{"structureString": "O=C(OCCCCCCCCCCCCCCCCBr)c1ccc(O)cc1O", "inequalitySymbol": "<", "pEC50": 4.00}
{"structureString": "O=C(OCCCCCCCCCCCCCCCC[n+]1cccc2ccccc21)c1ccc(O)cc1O.[Br-]", "inequalitySymbol": "=", "pEC50": 5.52}
{"structureString": "O=C(NO)c1ccc(OCCCCCCCC[P+](c2ccccc2)(c2ccccc2)c2ccccc2)cc1O.[Br-]", "inequalitySymbol": "=", "pEC50": 4.57}
{"structureString": "O=C(NO)c1ccc(OCCCCCCCCCCCC[P+](c2ccccc2)(c2ccccc2)c2ccccc2)cc1O.[Br-]", "inequalitySymbol": "=", "pEC50": 4.33}
{"structureString": "O=C(OCCCCCCCCCCCC[n+]1cccc2ccccc21)c1ccc(O)cc1O.[Br-]", "inequalitySymbol": "=", "pEC50": 5.15}
{"structureString": "O=C(OCCCCCCCCCC[P+](c1ccccc1)(c1ccccc1)c1ccccc1)c1ccc(O)cc1O.[Br-]", "inequalitySymbol": "=", "pEC50": 6.74}
{"structureString": "O=C(OCCCCCCCCCCCCCC[n+]1cccc2ccccc21)c1ccc(O)cc1O.[Br-]", "inequalitySymbol": "=", "pEC50": 5.42}
{"structureString": "O=C(OCCCCCCCCCCCCCC[P+](c1ccccc1)(c1ccccc1)c1ccccc1)c1ccc(O)cc1O.[Br-]", "inequalitySymbol": "=", "pEC50": 7.21}
{"structureString": "O=COCCCCCCCCCCOC(=O)c1ccc(O)cc1O", "inequalitySymbol": "<", "pEC50": 4.00}
{"structureString": "O=C(OCCCCCCCCC[P+](c1ccccc1)(c1ccccc1)c1ccccc1)c1ccc(O)cc1O.[Br-]", "inequalitySymbol": "=", "pEC50": 6.39}
{"structureString": "N=C(N)c1ccc(/N=N/Nc2ccc(C(=N)N)cc2)cc1", "inequalitySymbol": "=", "pEC50": 6.82}
{"structureString": "O=C(OCCCCCCCCCCCCBr)c1ccc(O)cc1O", "inequalitySymbol": "=", "pEC50": 4.28}

###

Attribute: pIC50
assayExplanation: Inhibition of recombinant MTS-deficient N-terminal His6-tagged and SUMO-tagged Trypanosoma alternative oxidase expressed in Escherichia coli FN102 using ubiquinol-1 as substrate
pIC50: −log10 of the molar value.

{"compound": "O=C(OCCCCCCCCCCCCCC[n+]1cccc2ccccc21)c1ccc(O)cc1O.[Br-]", "inequalitySymbol": "=", "pIC50": 5.87}
{"compound": "O=C(OCCCCCCCCCCCCCC[P+](c1ccccc1)(c1ccccc1)c1ccccc1)c1ccc(O)cc1O.[Br-]", "inequalitySymbol": "=", "pIC50": 5.84}
{"compound": "O=C(OCCCCCCCCCCCCCCCC[n+]1cccc2ccccc21)c1ccc(O)cc1O.[Br-]", "inequalitySymbol": "<", "pIC50": 5.30}
{"compound": "O=C(O)c1ccc(O)cc1O [2,4-DIHYDROXYBENZOIC ACID]", "inequalitySymbol": "=", "pIC50": 3.94}
{"compound": "O=C(OCCCCCCCCCCCCCCCC[P+](c1ccccc1)(c1ccccc1)c1ccccc1)c1ccc(O)cc1O.[Br-]", "inequalitySymbol": "<", "pIC50": 5.30}
{"compound": "O=C(OCCCCCCCCCCCC[n+]1cccc2ccccc21)c1ccc(O)cc1O.[Br-]", "inequalitySymbol": "<", "pIC50": 5.30}

###

Listing of entries alongside the reported CC50 at 30 h.
assayExplanation: Cytostatic activity against HEK293T cells after 30 hrs by resazurin based fluorimetric assay
Format: cell-based, HEK-293T
conditionSummary: human
valueType: CC50 at 30 h (µM)

{"structureString": "O=C(OCCCCCCCC[P+](c1ccccc1)(c1ccccc1)c1ccccc1)c1ccc(O)cc1O.[Br-]", "inequalitySymbol": "=", "reportedMeasurement": 7.73}
{"structureString": "O=C(OCCCCCCCCC[P+](c1ccccc1)(c1ccccc1)c1ccccc1)c1ccc(O)cc1O.[Br-]", "inequalitySymbol": "=", "reportedMeasurement": 4.68}
{"structureString": "O=C(OCCCCCCCCCCCCBr)c1ccc(O)cc1O", "inequalitySymbol": ">", "reportedMeasurement": 400}
{"structureString": "O=C(NO)c1ccc(OCCCCCCCCCC[P+](c2ccccc2)(c2ccccc2)c2ccccc2)cc1O.[Br-]", "inequalitySymbol": ">", "reportedMeasurement": 400}
{"structureString": "O=C(NO)c1ccc(OCCCCCCCC[P+](c2ccccc2)(c2ccccc2)c2ccccc2)cc1O.[Br-]", "inequalitySymbol": ">", "reportedMeasurement": 400}
{"structureString": "O=COCCCCCCCCCCOC(=O)c1ccc(O)cc1O", "inequalitySymbol": ">", "reportedMeasurement": 400}
{"structureString": "O=C(OCCCCCCCCCCCC[P+](c1ccccc1)(c1ccccc1)c1ccccc1)c1ccc(O)cc1O.[Br-]", "inequalitySymbol": "=", "reportedMeasurement": 1.65}
{"structureString": "O=C(OCCCCCCCCCC[P+](c1ccccc1)(c1ccccc1)c1ccccc1)c1ccc(O)cc1O.[Br-]", "inequalitySymbol": "=", "reportedMeasurement": 2.33}
{"structureString": "O=C(OCCCCCCCCCCCCCCCCBr)c1ccc(O)cc1O", "inequalitySymbol": ">", "reportedMeasurement": 400}
{"structureString": "BrCCCCCCCCCC[P+](c1ccccc1)(c1ccccc1)c1ccccc1.[Br-]", "inequalitySymbol": "=", "reportedMeasurement": 6.01}
{"structureString": "O=C(NO)c1ccc(OCCCCCCCCCCCC[P+](c2ccccc2)(c2ccccc2)c2ccccc2)cc1O.[Br-]", "inequalitySymbol": ">", "reportedMeasurement": 400}
